Provide the recorded IC50 for the entries that follow.
- System: Human umbilical vein endothelial cells (HUVEC)
- method_notes: Endothelial tube formation assay
- Assay type: cell-based
- condition_parameters: 50% reduction in total endothelial tube length, HUVEC on Matrigel, overnight culture

GET /values?readout=IC50&item= CC(=NN(C)c1nc(C)nc2ccccc12)c1ccc(C)cc1
< 1000 nM

GET /values?readout=IC50&item= CC(=NN(C)c1nc(C(F)(F)F)nc2ccccc12)c1ccc(C)cc1
< 1000 nM

---

- System: Colon cancer (C26, murine) cells
- method_notes: Tumor cell proliferation assay (ATP-lite), C26
- Format: cell-based
- condition_parameters: Mus musculus, 96 h, inhibition of tumor cell growth by 50%, 4 days incubation, ATP-lite readout
endpoint_label: IC50

GET /values?readout=IC50&item= CC(=O)Nc1ccccc1-c1cc(NN=C(C)c2ccc(C)cc2)nc(C)n1
< 1000 nM

GET /values?readout=IC50&item= CNc1ccc(C(C)=NNc2cc(-c3ccccc3)nc(C)n2)cc1
< 1000 nM

GET /values?readout=IC50&item= COc1ccc(C(C)=NNc2cc(-c3ccccc3)nc(C)n2)cc1
< 1000 nM

GET /values?readout=IC50&item= CC(=NNc1nc(C)nc2ccccc12)c1cccc(C)c1
1000 to 15000 nM

GET /values?readout=IC50&item= CC(=NNc1nc(C)nc2ccccc12)c1ccc(C)cc1
1000 to 15000 nM

GET /values?readout=IC50&item= CC(=NNc1cc(-c2c(C)noc2C)nc(C)n1)c1ccc(N(C)C)cc1
< 1000 nM

GET /values?readout=IC50&item= CC(=NNc1cc(-c2c(C)noc2C)nc(C)n1)c1ccc(C)cc1
< 1000 nM

GET /values?readout=IC50&item= CNc1ccc(C(C)=NNc2nc(C)nc(-c3ccccc3)c2N)cc1
< 1000 nM

GET /values?readout=IC50&item= COc1cccc(OC)c1-c1cc(NN=C(C)c2ccc(C)cc2)nc(C)n1
< 1000 nM
